experiment: NCI Yeast Anticancer Drug Screen. Data for the mec2-1 strain (AID 157); conditions: S. cerevisiae mec2-1 strain, stronger effect = higher value; at 50.0 µM unless noted
This is part of a sample that, as a whole, favours compounds with a hit. Of some 79,000 tested, about 15% had one in any assay.
growth inhibition values, listed per item
# output: bare number, implied unit %

{"Record smiles": "O=[N+]([O-])c1c[nH]c2ncnc(Cl)c12", "Readout unit": "%", "Reported": 0.6}
{"Record smiles": "C=CSS/C(=C/N(C=O)Cc1cnc(C)nc1N)CCO", "Readout unit": "%", "Reported": -33.5}

Query: Entry `CCOC(=O)c1c(C)[nH]c(C=O)c1C` has what growth inhibition?
Reply: 9.3

----------
growth inhibition values, listed per item
assay: NCI Yeast Anticancer Drug Screen. Data for the cln2 rad14 strain (AID 165);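 further: 0% = growth equal to vehicle treated cultures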; details: S. cerevisiae cln2 rad14 strain, stronger effect = higher value; at 50.0 µM unless noted
Compounds without any hit were thinned out: in the full panel of roughly 79,000, 15% have a hit.
# output: bare number, implied unit %

{"Molecule": "CC(=O)OC(C(=O)NNC(=O)OC(C)(C)C)c1ccccc1 (stereo not given)", "Readout unit": "%", "growth inhibition": -19.4}
{"Molecule": "O=C(c1ccccc1)C1(c2ccccc2)OC1(C(=O)c1ccccc1)c1ccccc1 (stereo not given)", "Readout unit": "%", "growth inhibition": -7.65}
{"Molecule": "Cc1ccc(S(=O)(=O)OC2C(OCc3ccccc3)OC(CO)C2O)cc1 (stereo not given)", "Readout unit": "%", "growth inhibition": 15.3}
{"Molecule": "CCCC(=O)OCC1OC(n2cc(F)c(=O)[nH]c2=O)CC1OC(=O)CCC (stereo not given)", "Readout unit": "%", "growth inhibition": -4.3}

Next item in the queue.
Query: Entry `CCN(CC)CCOC(=O)c1ccc(NC(=O)OCCOCCOC(=O)Nc2ccc(C(=O)OCCN(CC)CC)cc2)cc1` has what growth inhibition?
Reply: -1.1

----------
assay: NCI Yeast Anticancer Drug Screen. Data for the cln2 rad14 strain (AID 165);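 further: 0% = growth equal to vehicle treated cultures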; details: S. cerevisiae cln2 rad14 strain, stronger effect = higher value; at 50.0 µM unless noted
This is part of a sample that, as a whole, favours compounds with a hit. Of some 79,000 tested, about 15% had one in any assay.
growth inhibition values, listed per item
# output: bare number, implied unit %

Here are 5 molecules together with their reported answers.
{"Molecule": "CC(=O)N1C=CC(=Cc2ccccc2)C=C1", "Reported": -1.25}
{"Molecule": "Cc1ccc(S(=O)(=O)OCCN(CCOS(=O)(=O)c2ccc(C)cc2)c2cccc([N+](=O)[O-])c2)cc1", "Reported": 22.4}
{"Molecule": "CC(=O)N(C(C)=O)c1c(N)n(C)c(=O)[nH]c1=O", "Reported": 14.3}
{"Molecule": "CNC(=O)C(C)NC(=O)C(Cc1ccccc1)NC(=O)c1ccccc1 (stereo unspecified)", "Reported": 15.4}
{"Molecule": "Cc1cc(OC(=O)c2c(-c3c(Cl)cccc3Cl)noc2C)n(-c2ccc(NC(=O)c3c(-c4c(Cl)cccc4Cl)noc3C)cc2)n1", "Reported": 13}

Query: Entry `C#CCN(Cc1ccc2nc(-c3ccccc3)c(Cl)nc2c1)c1cc(OC)c(OC)c(OC)c1` has what growth inhibition?
Reply: -23.4

Query: Entry CN(C)C(CCC(=O)NC(C)(C)C)CC(=O)NC(C)(C)C (stereo unspecified) has what growth inhibition?
Reply: -2.35

Query: Entry `CC(C)COC(=O)c1ccccc1` has what growth inhibition?
Reply: -18.4

Sourced from PubChem BioAssay (NCI)
